Data origin: patent US7396837B2

- System: SK-MEL-28
- assay-details: SRB colorimetric cell growth inhibition assay, SK-MEL-28
- Assay type: cell-based
- condition-context: Homo sapiens, SK-MEL-28, MEL-28; GI=growth inhibition; read-out: GI50 MEL-28
measurement-label: GI50 (nM)
Value expressed in nM; do not type the unit.

Previously resolved entries follow.
COc1cc(-c2c3n(c4c(=O)oc5cc(OC(=O)[C@@H](N)Cc6ccccc6)c(OC)cc5c24)CCc2cc(OC(=O)[C@@H](N)Cc4ccccc4)c(OC)cc2-3)ccc1OC(=O)[C@@H](N)Cc1ccccc1	1450
COc1cc(-c2c3n(c4c(=O)oc5cc(OC(=O)[C@H](NC(=O)OC(C)(C)C)C(C)C)c(OC)cc5c24)CCc2cc(OC(=O)[C@H](NC(=O)OC(C)(C)C)C(C)C)c(OC)cc2-3)ccc1OC(=O)[C@H](NC(=O)OC(C)(C)C)C(C)C	1360
COc1cc(-c2c3n(c4c(=O)oc5cc(OC(=O)[C@H](C)NC(=O)[C@H](C)NC(=O)OC(C)(C)C)c(OC)cc5c24)CCc2cc(OC(=O)[C@H](C)NC(=O)[C@H](C)NC(=O)OC(C)(C)C)c(OC)cc2-3)ccc1OC(=O)[C@H](C)NC(=O)[C@H](C)NC(=O)OC(C)(C)C	652

Let us move to another entry and its GI50.
## Input Param item = CCCCCCCC(=O)Oc1ccc(-c2c3n(c4c(=O)oc5cc(OC(=O)CCCCCCC)c(OC)cc5c24)CCc2cc(OC(=O)CCCCCCC)c(OC)cc2-3)cc1OC ; retrieve measured GI50.
## Output 2240

###

- Test system: PANC-1
- assay-details: SRB colorimetric cell growth inhibition assay, PANC-1
- Type: cell-based
- condition-context: Homo sapiens, PANC-1, PANC-1; GI=growth inhibition; read-out: GI50 PANC-1
measurement-label: GI50 (µM)
Value expressed in µM; do not type the unit.

Previously resolved entries follow.
COc1cc(-c2c3c4cc(OC)c(O)cc4oc(=O)c3n3ccc4c(N)cccc4c23)ccc1O [Compound 182]	4.85
COc1cc(-c2c3c4cc(OC)c(OC(=O)[C@H](C)NC(=O)OC(C)(C)C)cc4oc(=O)c3n3ccc4cc(OC(=O)[C@H](C)NC(=O)OC(C)(C)C)c(OC)cc4c23)ccc1OC(=O)[C@H](C)NC(=O)OC(C)(C)C [Compound 41]	2.48
COc1cc(-c2c3c4cc(OC)c(O)cc4oc(=O)c3n3ccc4c([N+](=O)[O-])cccc4c23)ccc1O [Compound 53]	1.03
COc1cc2ccn3c(c(-c4ccc(OC(=O)[C@H](C)NC(=O)OC(C)(C)C)c(OC)c4)c4c5cc(OC)c(OC(=O)[C@H](C)NC(=O)OC(C)(C)C)cc5oc(=O)c43)c2cc1OC [Compound 77]	4.46

## Input Param item = COc1cc(-c2c3c4cc(OC)c(OC(=O)[C@@H](N)Cc5ccccc5)cc4oc(=O)c3n3ccc4cc(OC(=O)[C@@H](N)Cc5ccccc5)c(OC)cc4c23)ccc1OC(=O)[C@@H](N)Cc1ccccc1 [Compound 204] ; retrieve measured GI50.
## Output 0.0447

## Input Param item = COc1cc(-c2c3c4cc(OC)c(OC(=O)[C@@H](N)CC(C)C)cc4oc(=O)c3n3ccc4cc(OC(=O)[C@@H](N)CC(C)C)c(OC)cc4c23)ccc1OC(=O)[C@@H](N)CC(C)C [Compound 181] ; retrieve measured GI50.
## Output 0.0864

## Input Param item = COc1cc(-c2c3c4cc(OC)c(OC(=O)[C@H](C)NC(=O)[C@H](C)N)cc4oc(=O)c3n3ccc4c(OC(=O)[C@H](C)NC(=O)[C@H](C)N)c(OC)c(OC)cc4c23)ccc1OC(=O)[C@H](C)NC(=O)[C@H](C)N [Compound 5] ; retrieve measured GI50.
## Output 0.418

## Input Param item = COc1cc(-c2c3c4cc(OC)c(OC(=O)[C@@H](N)CC(C)C)cc4oc(=O)c3n3ccc4cc(OC(=O)[C@@H](N)CC(C)C)c(OC)cc4c23)ccc1OC(=O)[C@@H](N)CC(C)C [Compound 39] ; retrieve measured GI50.
## Output 0.164

## Input Param item = COc1cc2ccn3c(c(-c4ccc(OC(=O)[C@@H](NC(=O)OC(C)(C)C)C(C)C)c(OC)c4)c4c5cc(OC)c(OC(=O)[C@@H](NC(=O)OC(C)(C)C)C(C)C)cc5oc(=O)c43)c2cc1OC [Compound 15] ; retrieve measured GI50.
## Output 1.54

## Input Param item = COc1cc(-c2c3n(c4c(=O)oc5cc(O)c(OC)cc5c24)CCc2c-3cc(OC)c(OC)c2O)ccc1O [Compound 1] ; retrieve measured GI50.
## Output 2.2

## Input Param item = CC[C@H](C)[C@H](N)C(=O)Oc1ccc(-c2c3c4cc(OC)c(OC(=O)[C@@H](N)[C@@H](C)CC)cc4oc(=O)c3n3ccc4cc(OC(=O)[C@@H](N)[C@@H](C)CC)c(OC)cc4c23)cc1OC [Compound 209] ; retrieve measured GI50.
## Output 0.0674

## Input Param item = COc1cc2c(cc1OC)-c1c(-c3ccc(OC(=O)CCc4ccccc4)c(OC)c3)c3c4cc(OC)c(OC(=O)CCc5ccccc5)cc4oc(=O)c3n1CC2 [Compound 93] ; retrieve measured GI50.
## Output 12.8

###

- Tested on: LoVo
- assay-details: SRB colorimetric cell growth inhibition assay, LoVo
- Format: cell-based
- condition-context: Homo sapiens; LOVO; total growth inhibition (cytostatic effect); read-out: TGI LOVO
measurement-label: IC (TGI) (µM)
Value expressed in µM; do not type the unit.

COc1cc(-c2c3n(c4c(=O)oc5cc(OC(=O)[C@@H](N)C(C)C)c(OC)cc5c24)CCc2cc(OC(=O)[C@@H](N)C(C)C)c(OC)cc2-3)ccc1OC(=O)[C@@H](N)C(C)C	8.76
COc1cc(-c2c3n(c4c(=O)oc5cc(OC(=O)[C@H](C)NC(=O)[C@H](C)NC(=O)OC(C)(C)C)c(OC)cc5c24)CCc2cc(OC(=O)[C@H](C)NC(=O)[C@H](C)NC(=O)OC(C)(C)C)c(OC)cc2-3)ccc1OC(=O)[C@H](C)NC(=O)[C@H](C)NC(=O)OC(C)(C)C	5.05
CC[C@H](C)[C@H](NC(=O)OC(C)(C)C)C(=O)Oc1ccc(-c2c3c4cc(OC)c(OC(=O)[C@@H](NC(=O)OC(C)(C)C)[C@@H](C)CC)cc4oc(=O)c3n3ccc4cc(OC(=O)[C@@H](NC(=O)OC(C)(C)C)[C@@H](C)CC)c(OC)cc4c23)cc1OC	8.78

## Input # value lookup — system LoVo, readout IC (TGI), item COc1cc(-c2c3n(c4c(=O)oc5cc(OC(=O)[C@@H](N)Cc6c[nH]c7ccccc67)c(OC)cc5c24)CCc2cc(OC(=O)[C@@H](N)Cc4c[nH]c5ccccc45)c(OC)cc2-3)ccc1OC(=O)[C@@H](N)Cc1c[nH]c2ccccc12
## Output 1.78

###

In this section we review reported IC (TGI) values for a set of compounds.
- Test system: K-562
- assay-details: SRB colorimetric cell growth inhibition assay, K-562
- Format: cell-based
- condition-context: Homo sapiens, K562, K-562; TGI=total growth inhibition (cytostatic effect); read-out: TGI K-562
Value expressed in µM; do not type the unit.

COc1cc(-c2c3c4cc(OC)c(OC(=O)[C@@H](N)CCCCNC(=O)OCc5ccccc5)cc4oc(=O)c3n3ccc4c(OC(=O)[C@@H](N)CCCCNC(=O)OCc5ccccc5)c(OC)c(OC)cc4c23)ccc1OC(=O)[C@@H](N)CCCCNC(=O)OCc1ccccc1	0.686

Let us move to another entry and its IC (TGI).
## Input Param item = COc1cc(-c2c3c4cc(OC)c(OC(=O)[C@@H]5CCCN5)cc4oc(=O)c3n3ccc4c(OC(=O)[C@@H]5CCCN5)c(OC)c(OC)cc4c23)ccc1OC(=O)[C@@H]1CCCN1 ; retrieve measured IC (TGI).
## Output 1.1

###

- System: A-549
- assay-details: SRB colorimetric cell growth inhibition assay, A-549
- Format: cell-based
- condition-context: Homo sapiens, A549, read-out: LC50 A-549, A-549; LC=cell killing (cytotoxic effect)
- Description: The finality of these assays is to interrupt the growth of an “in vitro” tumor cell culture by means a continued exhibition of the cells to the sample to be testing. A colorimetric type of assay, using sulforhodamine B (SRB) reaction has been adapted for a quantitative measurement of cell growth and viability (following the technique described by P. A. Skehan, et al., J. Natl. Cancer Inst. 1990, 82, 1107-1112). […] The values for mean +/− SD of data from triplicate wells are calculated. […]
measurement-label: CC50 (µM)
Value expressed in µM; do not type the unit.

COc1cc(-c2c3c4cc(OC)c(OC(=O)[C@H](N)C(C)C)cc4oc(=O)c3n3ccc4c(OC(=O)[C@H](N)C(C)C)c(OC)c(OC)cc4c23)ccc1OC(=O)[C@H](N)C(C)C	12.1

## Input # value lookup — system A-549, readout CC50, item COc1cc(-c2c3n(c4c(=O)oc5cc(OC(=O)[C@H](C)NC(=O)OC(C)(C)C)c(OC)cc5c24)CCc2c-3cc(OC)c(OC)c2OC(=O)[C@H](C)NC(=O)OC(C)(C)C)ccc1OC(=O)[C@H](C)NC(=O)OC(C)(C)C
## Output 9.57
